The reported numbers originate from paper PMC11130262.

- RUN DESCRIPTION: Oral bioavailability and pharmacokinetic study in mice
- Format: in vivo, female CD1 mice
- CONDITION SET: female, CD1, mouse, plasma; oral dose of 30 mg/kg, mean; read-out: T1/2 (converted)
ENDPOINT LABEL: half-life (h)
Value expressed in h; do not type the unit.

Find the measured half-life of COc1ccc(Cn2[se]c3ccccc3c2=O)cn1 and report it.
1.35
